# target.desc: cathepsin K (Homo sapiens, UniProt P43235)
# Sequence (P43235 115-329): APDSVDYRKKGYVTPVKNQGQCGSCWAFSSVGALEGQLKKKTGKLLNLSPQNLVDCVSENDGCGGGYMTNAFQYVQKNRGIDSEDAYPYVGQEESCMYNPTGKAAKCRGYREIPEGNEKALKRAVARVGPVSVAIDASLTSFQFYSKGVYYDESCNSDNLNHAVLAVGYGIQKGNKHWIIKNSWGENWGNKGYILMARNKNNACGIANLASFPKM
# assay.summary: Determination of cathepsin K proteolytic catalytic activity / inhibition studies (progress curve method, Cbz-Phe-Arg-AMC)
# particulars: human recombinant enzyme, 100 mM Na acetate pH 5.5, 20 μM substrate, 10% DMSO
property: Ki (nM)
Write the answer as a number in nM, unit excluded.

Input line: Ki lookup needed for CC(C)C[C@H](NC(=O)c1ccc2ccccc2n1)C(=O)NC1CCCN(S(=O)(=O)c2cccc[n+]2[O-])CC1=O (stereo partly shown) , thanks.
Output line: 0.41
